system: Escherichia coli TOP10; assay: shrunken log2 fold change of peptide-encoding DNA abundance (4.5 h post-induction vs induction); higher = less antimicrobial activity (less host growth inhibition); conditions: time post-induction: 4.5 h; library: site-saturation at positions 5, 18, 19, 20
The following sequences are listed with their measured shrunken log2 fold change values.

- Seq String: "RRIRCRPPRLPRPRPRPWHQPRP"
  shrunken log2 fold change: -0.0304
- Seq String: "RRIRFRPPRLPRPRPRPTTIPRP"
  shrunken log2 fold change: -0.548
- Seq String: "RRIRVRPPRLPRPRPRPTGHPRP"
  shrunken log2 fold change: 0.0149
- Seq String: "RRIRVRPPRLPRPRPRPMANPRP"
  shrunken log2 fold change: 0.146
- Seq String: "RRIRQRPPRLPRPRPRPQYYPRP"
  shrunken log2 fold change: -0.243
- Seq String: "RRIRDRPPRLPRPRPRPYPAPRP"
  shrunken log2 fold change: -0.15
- Seq String: "RRIRHRPPRLPRPRPRPDNLPRP"
  shrunken log2 fold change: 0.0139
- Seq String: "RRIRNRPPRLPRPRPRPWWSPRP"
  shrunken log2 fold change: 0.0428

====

The following sequences are listed with their measured shrunken log2 fold change values.
test system: Escherichia coli TOP10; assay: shrunken log2 fold change of peptide-encoding DNA abundance (4.5 h post-induction vs induction); higher = less antimicrobial activity (less host growth inhibition); details: time post-induction: 4.5 h; library: site-saturation at positions 5, 18, 19, 20

- Seq String: "RRIRPRPPRLPRPRPRPQQKPRP"
  shrunken log2 fold change: 0.433
- Seq String: "RRIRHRPPRLPRPRPRPSTFPRP"
  shrunken log2 fold change: -0.0458
- Seq String: "RRIRQRPPRLPRPRPRPPDYPRP"
  shrunken log2 fold change: 0.00906
- Seq String: "RRIRGRPPRLPRPRPRPHKMPRP"
  shrunken log2 fold change: 0.0936
- Seq String: "RRIRERPPRLPRPRPRPDWPPRP"
  shrunken log2 fold change: 0.108
- Seq String: "RRIRDRPPRLPRPRPRPTGTPRP"
  shrunken log2 fold change: 0.0829
- Seq String: "RRIRQRPPRLPRPRPRPPYVPRP"
  shrunken log2 fold change: 0.191
- Seq String: "RRIRVRPPRLPRPRPRPFSRPRP"
  shrunken log2 fold change: -0.0787
- Seq String: "RRIRSRPPRLPRPRPRPVQVPRP"
  shrunken log2 fold change: 0.159
- Seq String: "RRIRRRPPRLPRPRPRPEYYPRP"
  shrunken log2 fold change: -0.324
- Seq String: "RRIRHRPPRLPRPRPRPQGNPRP"
  shrunken log2 fold change: -0.168
- Seq String: "RRIRMRPPRLPRPRPRPFHSPRP"
  shrunken log2 fold change: -0.0121
- Seq String: "RRIRSRPPRLPRPRPRPANKPRP"
  shrunken log2 fold change: -0.283
- Seq String: "RRIRWRPPRLPRPRPRPDMNPRP"
  shrunken log2 fold change: 0.143
- Seq String: "RRIRWRPPRLPRPRPRPNCHPRP"
  shrunken log2 fold change: 0.0398

====

test system: Escherichia coli TOP10; experiment: shrunken log2 fold change of peptide-encoding DNA abundance (4.5 h post-induction vs induction); higher = less antimicrobial activity (less host growth inhibition); conditions: time post-induction: 4.5 h; library: site-saturation at positions 5, 18, 19, 20;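 also: peptides expressed intracellularly from a pBAD plasmid library in pooled LB shake-flask culture, induced with 0.3% L-arabinose, DNA abundance read by NGS, three biological replicates, DESeq2 with apeglm shrinkage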
Binary call on shrunken log2 fold change: t from 0.01 upward, f beneath that.

- Seq String: "RRIRVRPPRLPRPRPRPILWPRP"
  Label Value: "t"
- Seq String: "RRIRERPPRLPRPRPRPHGHPRP"
  Label Value: "t"
- Seq String: "RRIRGRPPRLPRPRPRPEWCPRP"
  Label Value: "t"
- Seq String: "RRIRVRPPRLPRPRPRPHLPPRP"
  Label Value: "f"
- Seq String: "RRIRERPPRLPRPRPRPVAGPRP"
  Label Value: "t"
- Seq String: "RRIRFRPPRLPRPRPRPWQKPRP"
  Label Value: "f"
- Seq String: "RRIRTRPPRLPRPRPRPQDTPRP"
  Label Value: "f"
- Seq String: "RRIRVRPPRLPRPRPRPECAPRP"
  Label Value: "t"
- Seq String: "RRIRGRPPRLPRPRPRPHRLPRP"
  Label Value: "t"
- Seq String: "RRIRKRPPRLPRPRPRPPVMPRP"
  Label Value: "t"
- Seq String: "RRIRQRPPRLPRPRPRPWRFPRP"
  Label Value: "f"
- Seq String: "RRIRCRPPRLPRPRPRPKNLPRP"
  Label Value: "f"
- Seq String: "RRIRIRPPRLPRPRPRPVLQPRP"
  Label Value: "t"
- Seq String: "RRIRNRPPRLPRPRPRPEMYPRP"
  Label Value: "f"
- Seq String: "RRIRDRPPRLPRPRPRPAAIPRP"
  Label Value: "t"
